# ASSAY_OVERVIEW: capillary depletion analysis after in situ brain perfusion
# Assay type: in vivo, mouse
# APPLIED_CONDITIONS: male, BALB/c, mouse, capillary depletion pellet (endothelial cell-enriched), [3H] ADMA and [14C] Sucrose uptake, pellet, 20 mins, 5ml/min; mean
Where a name gives a salt, the structure may show the parent alone.
// reported Kp at 20 min, 62.5 nM per item
PROPERTY_MEASURED: Kp at 20 min, 62.5 nM

| COMPOUND | MEAS_VALUE |
| --- | --- |
| OC[C@H]1O[C@@](CO)(O[C@H]2O[C@H](CO)[C@@H](O)[C@H](O)[C@H]2O)[C@@H](O)[C@@H]1O [[^14C]-sucrose, reference compound] | 0.00274 |
| CN(C)C(N)=NCCC[C@H](N)C(=O)O [ADMA, N^G,N^G-dimethylarginine dihydrochloride] | 0.0276 |

----------
# System: [3H]-ADMA transport across the blood-brain and blood-CSF barriers
# ASSAY_OVERVIEW: cross-inhibition, in situ perfusion: [^3H]-ADMA with 100 μM unlabelled L-arginine
# Assay type: in vivo, mouse
# APPLIED_CONDITIONS: male, Balb/c, mouse, hippocampus, other: in situ brain perfusion, with 100 µM unlabelled L-arginine, [3H] ADMA + [14C] Sucrose + 100uM Arg, 10 mins, Balb/c ♂, 5ml/min; mean; read-out: uptake into hippocampus
Where a name gives a salt, the structure may show the parent alone.
PROPERTY_MEASURED: Kp at 10 min, 62.5 nM

| COMPOUND | SYSTEM_TESTED | MEAS_VALUE |
| --- | --- | --- |
| CN(C)C(N)=NCCC[C@H](N)C(=O)O [ADMA, N^G,N^G-dimethylarginine dihydrochloride] | [3H]-ADMA transport across the blood-brain and blood-CSF barriers | 0.0608 |

----------
# Tested on: [3H]-ADMA transport across the blood-brain and blood-CSF barriers
# ASSAY_OVERVIEW: self-inhibition, in situ perfusion: [^3H]-ADMA with 100 μM unlabelled ADMA
# Assay type: in vivo, mouse
# APPLIED_CONDITIONS: male, Balb/c, mouse, cerebellum, other: in situ brain perfusion, with unlabelled ADMA 100 µM, Difference (ADMA minus Sucrose), cerebellum, + 100uM un-labelled ADMA, 10 mins, Balb/c ♂, 5ml/min; individual mice
Where a name gives a salt, the structure may show the parent alone.
PROPERTY_MEASURED: Kp at 10 min, 62.5 nM

| COMPOUND | SYSTEM_TESTED | PROPERTY_MEASURED | MEAS_VALUE |
| --- | --- | --- | --- |
| CN(C)C(N)=NCCC[C@H](N)C(=O)O [ADMA, N^G,N^G-dimethylarginine dihydrochloride] | [3H]-ADMA transport across the blood-brain and blood-CSF barriers | Kp at 10 min, 62.5 nM | 0.0515 |

----------
# ASSAY_OVERVIEW: self-inhibition, in situ perfusion: [^3H]-ADMA with 100 μM unlabelled ADMA
# Assay type: in vivo, mouse
# APPLIED_CONDITIONS: male, BALB/c, mouse, occipital cortex, other: in situ brain perfusion, with unlabelled ADMA 100 µM, [3H] ADMA + [14C] Sucrose + 100uM un-labelled ADMA, 10 mins, Balb/c ♂, 5ml/min; individual mice; read-out: uptake into occipital cortex
# Description: Self-inhibition experiments were also performed. […] Cross-competition experiments were also performed. The percentage change in the RTissue uptake values achieved in the absence or presence of an unlabelled inhibitor can be calculated by means of Eq 4. %change=RTissue−RInhibition/RTissue×100 Eq 4 We define RInhibition as the RTissue uptake in the presence of an inhibitor in the artificial plasma. […]
Structures can show the parent of a compound that is named as a salt.
PROPERTY_MEASURED: Kp at 10 min, 62.5 nM

| COMPOUND | MEAS_VALUE |
| --- | --- |
| CN(C)C(N)=NCCC[C@H](N)C(=O)O [ADMA, N^G,N^G-dimethylarginine dihydrochloride] | 0.0898 |

These entries and their values trace back to paper PMC11501026.
